# credit: PubChem BioAssay (NCI)

tested on: HL-60(TB) leukemia; assay: NCI tumour cell line growth inhibition, 48 h; in the data active = GI50 below about 0.43 µM; inactive = the rest
Possible outcomes: active, inactive

{"COMPOUND": "CCN(CC)CCCC(Nc1c2ccc(Cl)cc2nc2ccc(OC)cc12)c1ccc(Cl)cc1 (centres undefined)", "CLASS": "inactive"}
{"COMPOUND": "CCOC(=O)c1cn(C)c2c(OC)c3ccccc3c(OC)c2c1=O", "CLASS": "inactive"}
{"COMPOUND": "OCc1ccc(-c2ccc(-c3ccc(CO)o3)o2)o1", "CLASS": "inactive"}
{"COMPOUND": "CCOC(=O)[C@@H](C)C[C@H](Cc1ccccc1)NC(=O)c1csc([C@@H](C[C@H](C(C)C)N(C)C(=O)CNC(=O)[C@H]2CCCCN2C)OC(C)=O)n1", "CLASS": "active"}
